Source listed as PubChem BioAssay (NCATS).

procedure_details: Quantitative highthroughput screen to assess conditional lethalithy of P12 Ichikawa cells grown in RPMI1640 with untreated serum (RPMI+s) (AID 1963881); further: nearly all actives have a fitted effect of over 35% in size;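 on viability: 100% = DMSO wells and 0% = empty wells without cells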
assay_setup: ATP luminescence, 48 h; viability; series mostly up to 45.8 µM
Results filed as inconclusive are left out. Calls of active or inactive are those of the source. The call rests on the fitted dose curve; in most records, active means well fitted cell-killing curve with a large enough effect; inconclusive means small, poorly fitted or top-dose-only effect; inactive means flat fitted curve, though single readings scatter.
Hello, when you answer, please use one of the following outcomes: label 1 = active, label 0 = inactive

Check the results log: what was the call for CCOc1ccccc1-n1c(C(C)N2CCN(C(=O)COc3ccc(Cl)cc3)CC2)nc2ccccc2c1=O (centres undefined) ?
label 1

Same question, CC(NC(C)(C)C)C(=O)c1cccc(Cl)c1 (centres undefined) this time
label 0

Same question, C[C@]12CCC(=O)C(O)=C1CC[C@@H]1[C@H]3CCC(=O)[C@@]3(C)CC[C@@H]12 this time
label 0

Same question, CCN1C[C@]2(OC(=O)c3ccccc3NC(C)=O)CC[C@H](OC)[C@@]34[C@H]5CC6[C@@H](OC)C[C@](O)(C(C[C@@H]23)[C@@H]14)[C@@]5(O)[C@@H]6OC this time
label 0

Same question, C=C(C)[C@H]1Cc2c(ccc3c2O[C@@H]2COc4cc(OC)c(OC)cc4[C@@H]2C3=O)O1 this time
label 1

Same question, CC[C@@H]1[C@@H](C)O[C@@](O)([C@@H](C)[C@H](O)[C@H](C)[C@H]2OC(=O)C=CC=C[C@@H](C)[C@@H]([C@@H](C)[C@@H](O)[C@H](C)[C@@]3(O)C[C@H](O[C@H]4C[C@H](O)[C@H](O)[C@H](C)O4)[C@H](CC)[C@@H](C)O3)OC(=O)C=CC=C[C@@H]2C)C[C@H]1O[C@H]1C[C@H](O)[C@H](O)[C@H](C)O1 this time
label 1

Same question, C[C@@H]1CC[C@H]2[C@@H](C)C(=O)O[C@@H]3O[C@@]4(C)CC[C@H]1[C@]32OO4 this time
label 0

Same question, CC(C)[C@H]1C(=O)N[C@H](CO)Cc2c[nH]c3cccc(c23)N1C this time
label 1

Same question, COc1ccc2c(c1OC)CN1CCc3cc4c(cc3C1C2)OCO4 (centres undefined) this time
label 1

---

procedure_details: Cellular viability qHTS for adrenocortical cancer (ACC) cell line NCI-H295R (AID 1963990); further: nearly all actives have a fitted effect of over 60% in size
assay_setup: CellTiter-Glo ATP luminescence, 48 h; series mostly up to 46.1 µM
Results filed as inconclusive are left out. Active and inactive are the calls of the source. The call rests on the fitted dose curve; in most records, active means well fitted cell-killing curve with a large enough effect; inconclusive means small, poorly fitted or top-dose-only effect; inactive means flat fitted curve, though single readings scatter.
Hello, when you answer, please use one of the following outcomes: yes (1) = active, no (0) = inactive

Check the results log: what was the call for COc1cccc([C@@]2(O)CCCC[C@@H]2CN(C)C)c1 ?
no (0)

Same question, O=C(O)CCCCCCNC1c2ccccc2CCc2ccccc21 this time
no (0)

Same question, O=C1NCN(c2ccccc2)C12CCN(CC1COc3ccccc3O1)CC2 (centres undefined) this time
no (0)

Same question, c1cc2ccc3cccc4ccc(c1)c2c34 this time
no (0)

Same question, C[C@]12CC[C@H]3[C@@H](CCC4=CC(=O)CC[C@@]43C)[C@@H]1CC[C@@H]2C(=O)O this time
no (0)

Same question, CN1C(=O)CN=C(c2ccccc2)c2cc(Cl)ccc21 this time
no (0)

Same question, COC1CC(=C(c2cccs2)c2cccs2)C[N+](C)(C)C1 (centres undefined) this time
no (0)

Same question, Cc1ccc2c(c1)C1CN(C)CCC1N2 (centres undefined) this time
no (0)

Same question, Oc1c(Br)cc(Br)cc1Br this time
no (0)

Same question, Nc1ccc(N)cc1 this time
no (0)

Same question, CCOc1ccccc1-n1c(C(C)N2CCN(C(=O)COc3ccc(Cl)cc3)CC2)nc2ccccc2c1=O (centres undefined) this time
yes (1)

Same question, CC[C@@H](C(N)=O)N1CCCC1=O this time
no (0)

Same question, CN(C)[C@@H]1C(=O)C(C(N)=O)=C(O)[C@@]2(O)C(=O)C3=C(O)c4c(O)cccc4[C@@](C)(O)[C@H]3C[C@@H]12 this time
no (0)

Same question, CC(C)(C)NCC(O)c1cc(Cl)c(N)c(C(F)(F)F)c1 (centres undefined) this time
no (0)

Same question, COc1cc2c(cc1F)C(c1ccccc1Cl)=Nc1c(n[nH]c1C)N2 this time
no (0)

Same question, COc1ccc2c(c1OC)C(=O)O[C@H]2[C@@H]1c2cc3c(cc2CCN1C)OCO3 this time
no (0)

Same question, O=S(=O)(F)Cc1ccccc1 this time
no (0)

Same question, C[C@H](CN1CCOCC1)C(C(=O)N1CCCC1)(c1ccccc1)c1ccccc1 this time
no (0)

Same question, Nc1ccccc1C(=O)O this time
no (0)

Same question, CCCN1CCC[C@@H]2Cc3[nH]ncc3C[C@H]21 this time
no (0)

Same question, NCC1(CC(=O)O)CCCCC1 this time
no (0)

Same question, CCCCC(CC)COC(=O)c1ccccc1C(=O)OCC(CC)CCCC (centres undefined) this time
no (0)

Same question, CC(C(O)c1ccccc1)N(C)C/C=C/c1ccccc1 (centres undefined) this time
no (0)

Same question, CCC1(c2ccc(N)cc2)CCC(=O)NC1=O (centres undefined) this time
no (0)

Same question, COc1cc(C[C@@H](C)N)c(OC)cc1Br this time
no (0)

Same question, CCN(CC)C(=O)N[C@@H]1C=C2c3cccc4[nH]cc(c34)C[C@@H]2N(C)C1 this time
no (0)

Same question, CC1=C2C[C@H]3[C@@H](CC=C4C[C@@H](O)CC[C@@]43C)[C@@H]2CC[C@]12O[C@@H]1C[C@H](C)CN[C@H]1[C@H]2C this time
no (0)

Same question, CCOC(C(=O)OCCN(C)C)(c1ccccc1)c1ccccc1 this time
no (0)

Same question, CCCOC(=O)c1cncn1C(C)c1ccccc1 (centres undefined) this time
no (0)

Same question, Nc1ccc([As](=O)(O)O)cc1 this time
no (0)

Same question, C/C(=C\c1csc(C)n1)[C@@H]1C[C@@H]2O[C@@H]2CCC[C@H](C)[C@H](O)[C@@H](C)C(=O)C(C)(C)[C@@H](O)CC(=O)O1 this time
yes (1)

Same question, CN[C@@H](C)[C@H](O)c1ccccc1 this time
no (0)

Same question, CC(N[C@H]1C[C@@H]1c1ccccc1)c1ccc2c(c1)OCCO2 (some centres undefined) this time
no (0)

Same question, NCCc1ccc(O)cc1 this time
no (0)

---

procedure_details: Quantitative highthroughput screen to assess conditional lethalithy of SEM cells grown in Human Plasma-Like Medium with dialyzed fetal bovine serum (HPLM+ds) (AID 1963882); further: nearly all actives have a fitted effect of over 35% in size
assay_setup: SEM B-ALL cells in HPLM+ds, CellTiter-Glo viability, 48 h; series mostly up to 45.8 µM
Results filed as inconclusive are left out. Active and inactive are the calls of the source. Calls follow the shape of the dose curve; as a rule, active = well fitted cell-killing curve with a large enough effect; inconclusive = small, poorly fitted or top-dose-only effect, or effect the other way; inactive = no such curve, though single readings can be large or run the other way.
Hello, when you answer, please use one of the following outcomes: active, inactive

Check the results log: what was the call for CC(=O)OCC1=C(C(=O)O)N2C(=O)[C@@H](N)[C@@H]2SC1 ?
inactive

Same question, O=C1C=CC[C@@H]2[C@H]3CCCN4CCC[C@@H](CN12)[C@@H]34 this time
inactive

Same question, CC(=O)Nc1ccc(OC[C@](C)(O)C(=O)Nc2ccc([N+](=O)[O-])c(C(F)(F)F)c2)cc1 this time
inactive

Same question, CC(C)N(CCNC(=O)CN1CCCC1=O)C(C)C this time
inactive

Same question, O=C(NCC1CCOCC1)c1cnc(Nc2ccc(Cl)cc2Cl)nc1C(F)(F)F this time
inactive

Same question, CN1C(=O)CCS(=O)(=O)C1c1ccc(Cl)cc1 (stereo unspecified) this time
inactive

Same question, C=C[C@@H]1CN2CCC1C[C@@H]2[C@@H](O)c1ccnc2ccccc12 (stereo partly specified) this time
inactive

Same question, C[C@]12Cc3cn[nH]c3C[C@@H]1CC[C@@H]1[C@H]2CC[C@@]2(C)[C@H]1CC[C@]2(C)O this time
inactive

Same question, COC[C@H]1OC(=O)c2coc3c2[C@@]1(C)C1=C(C3=O)C2CCC(=O)[C@@]2(C)C[C@H]1OC(C)=O (stereo partly specified) this time
inactive

Same question, CC(C)c1cccc(C(C)C)c1O this time
inactive

Same question, CC(C)(O)C=CC(=O)[C@](C)(O)[C@H]1[C@H](O)C[C@]2(C)[C@@H]3CC=C4[C@@H](C=C(O)C(=O)C4(C)C)[C@]3(C)C(=O)C[C@@]12C this time
active

---

procedure_details: Cellular viability qHTS for adrenocortical cancer (ACC) cell line NCI-H295R (AID 1963990); further: nearly all actives have a fitted effect of over 60% in size; further: potency means the concentration at half of the fitted maximal effect
assay_setup: CellTiter-Glo ATP luminescence, 48 h; series mostly up to 46.1 µM
Records with an inconclusive call do not appear. Calls of active or inactive are those of the source. The call rests on the fitted dose curve; in most records, active means well fitted cell-killing curve with a large enough effect; inconclusive means small, poorly fitted or top-dose-only effect; inactive means flat fitted curve, though single readings scatter.
measurement_type: Potency

For orientation, consider the following solved cases.
[[record]]
compound = "O=c1[nH]oc2c1CCNC2"
measured_result = "inactive"

[[record]]
compound = "C=CCC1(C(C)CC)C(=O)NC(=O)NC1=O (centres undefined)"
measured_result = "inactive"

[[record]]
compound = "Cc1ncc2n1-c1ccc(Cl)cc1C(c1ccccc1F)=NC2"
measured_result = "inactive"

[[record]]
compound = "N#CC(O[C@@H]1O[C@H](CO[C@@H]2O[C@H](CO)[C@@H](O)[C@H](O)[C@H]2O)[C@@H](O)[C@H](O)[C@H]1O)c1ccccc1 (some centres undefined)"
measured_result = "inactive"

[[record]]
compound = "CC(C)(N)Cc1ccc(Cl)cc1"
measured_result = "inactive"


Query: Potency; subject: CCOC(=O)c1ncn2c1CN(C)C(=O)c1c(I)cccc1-2
inactive

Same question, O=[N+]([O-])c1cc([As](=O)(O)O)ccc1O this time
inactive

Same question, c1ccc2c(c1)Sc1ccccc1N2CC1CN2CCC1CC2 (centres undefined) this time
16.4 µM (active)
